Tested on: 786-0 complex spheroids with HUVEC/MSC, growth % test/control
Test: Anticancer human tumor 786-0 cell line growth inhibition [AhR];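 also: compound exposure lasted seven days before the read-out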
Conditions: curve of first compound; second compound 10 µM
Measurement Kind: IC50 (nM)
Give the number; nM is assumed, so skip it.

Sample answers from the record:
[
  {
    "Compound": "COc1cc(C2c3cc4c(cc3C(OC3OC5COC(C)OC5C(O)C3O)C3COC(=O)C23)OCO4)cc(OC)c1O (stereo unspecified) + Cc1ccccc1N=Nc1ccc(NC(=O)c2ccnn2C)c(C)c1",
    "Unit Abbreviation": "nM",
    "IC50": 723
  },
  {
    "Compound": "COc1cc(Nc2ncc3c(n2)-c2ccc(Cl)cc2C(c2c(F)cccc2OC)=NC3)ccc1C(=O)O + CC(CO)NC(=O)c1cc(-c2ccc(Cl)cc2)nn(-c2cnn(C)c2)c1=O",
    "Unit Abbreviation": "nM",
    "IC50": 2820
  }
]

--- query ---
Request: Fill in the recorded IC50 for this compound, with 786-0 complex spheroids with HUVEC/MSC, growth % test/control as test system: CC1COCCN1c1cc(C2(S(C)(=N)=O)CC2)nc(-c2ccnc3[nH]ccc23)n1 (stereo unspecified) + CC(CO)NC(=O)c1cc(-c2ccc(Cl)cc2)nn(-c2cnn(C)c2)c1=O
Response: 2090

###

Test system: 786-0 complex spheroids with HUVEC/MSC, growth % test/control
Test: Anticancer human tumor 786-0 cell line growth inhibition [AhR];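 also: compound exposure lasted seven days before the read-out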
Conditions: second compound 3.16 µM; first compound 0.003 µM; stronger effect = lower value
Excerpt: Multicellular complex tumor spheroid response to aryl hydrocarbon receptor antagonists in combination with a variety of drugs and investigational agents in selected tumor cell lines […] Compounds. […] If the clinical Cmax for an agent had not been determined, the highest concentration tested was 10 microM (Table 1). […]
viability, T/C reference
Give the number; % is assumed, so skip it.

Sample answers from the record:
[
  {
    "Compound": "CC(C)CC(NC(=O)C(Cc1ccccc1)NC(=O)c1cnccn1)B(O)O (centres undefined) + Cc1ccccc1N=Nc1ccc(NC(=O)c2ccnn2C)c(C)c1",
    "viability, T/C [%]": 96.1
  },
  {
    "Compound": "CCc1c2c(nc3ccc(O)cc13)-c1cc3c(c(=O)n1C2)COC(=O)[C@]3(O)CC + Cc1cncc(-c2nc(NCCc3c[nH]c4ccccc34)c3ncn(C(C)C)c3n2)c1",
    "viability, T/C [%]": 27.2
  },
  {
    "Compound": "Nc1ncn(C2CC(O)C(CO)S2)c(=O)n1 (centres undefined) + Cc1cncc(-c2nc(NCCc3c[nH]c4ccccc34)c3ncn(C(C)C)c3n2)c1",
    "viability, T/C [%]": 65.2
  },
  {
    "Compound": "CC(C)CC(NC(=O)C(Cc1ccccc1)NC(=O)c1cnccn1)B(O)O (centres undefined) + CC(CO)NC(=O)c1cc(-c2ccc(Cl)cc2)nn(-c2cnn(C)c2)c1=O",
    "viability, T/C [%]": 118
  },
  {
    "Compound": "Nc1ncn(C2CC(O)C(CO)S2)c(=O)n1 (centres undefined) + Cc1ccccc1N=Nc1ccc(NC(=O)c2ccnn2C)c(C)c1",
    "viability, T/C [%]": 99.9
  },
  {
    "Compound": "CC(C)CC(NC(=O)C(Cc1ccccc1)NC(=O)c1cnccn1)B(O)O (centres undefined) + Cc1cncc(-c2nc(NCCc3c[nH]c4ccccc34)c3ncn(C(C)C)c3n2)c1",
    "viability, T/C [%]": 69.3
  },
  {
    "Compound": "CCc1c2c(nc3ccc(O)cc13)-c1cc3c(c(=O)n1C2)COC(=O)[C@]3(O)CC + CC(CO)NC(=O)c1cc(-c2ccc(Cl)cc2)nn(-c2cnn(C)c2)c1=O",
    "viability, T/C [%]": 50.7
  },
  {
    "Compound": "CCc1c2c(nc3ccc(O)cc13)-c1cc3c(c(=O)n1C2)COC(=O)[C@]3(O)CC + Cc1ccccc1N=Nc1ccc(NC(=O)c2ccnn2C)c(C)c1",
    "viability, T/C [%]": 95.6
  }
]

Request: Suppose we examine the compound Nc1ncn(C2CC(O)C(CO)S2)c(=O)n1 (centres undefined) + CC(CO)NC(=O)c1cc(-c2ccc(Cl)cc2)nn(-c2cnn(C)c2)c1=O ; what viability, T/C value has been reported?
Response: 108

Values from PubChem BioAssay AID1919003
